system_name: T1, DQA1*0102/DQB1*0602 (human, UniProt P01920 33-230, limits assumed)
T1 construct: human MHC class II allotype
T1 MHC II alpha: not shown
T1 MHC II beta: not shown
method_description: competitive MHC class II binding assay
endpoint_name: binding result

Field: example entries. Status: answers known.
                                     binder  measurement
0                    IGIIDLKGELDMRN [HDM31]   no binding
1                     EYIQHNGVVQESY [HDM05]   no binding
2                  HIGIIDLKGELDMRN [HDM31A]   no binding
3                     KDLDAFRHYDGRT [HDM12]   no binding
4  RTIIQRDNGYQPNY (solubility test: NO) [HDM13]   no binding
5                     PNVNKIREALAQT [HDM07]   no binding
6                     KAVDEAVAAIEKS [HDM28]   no binding
7                     KRVGDANVKSEDG [HDM36]   no binding

Please list binding result recorded for the binder IDLKGELDMRNIQVR [HDM32A] no binding

Please list binding result recorded for the binder NSVNVPSELDLRSLRT [HDM17] no binding

Please list binding result recorded for the binder KSETFDPMKVPDHSD [HDM29B] no binding

Please list binding result recorded for the binder ETFDPMKVPDHSDK [HDM29A] no binding

Please list binding result recorded for the binder NKIREALAQTHSA [HDM08] no binding

Please list binding result recorded for the binder RNSWDTNWGDNGYG [HDM16A] no binding

Please list binding result recorded for the binder ETFDPMKVPDHSD [HDM29] no binding
